biological target: Somatostatin receptor type 2 (Rattus norvegicus, UniProt P30680)
Sequence (P30680 whole entry): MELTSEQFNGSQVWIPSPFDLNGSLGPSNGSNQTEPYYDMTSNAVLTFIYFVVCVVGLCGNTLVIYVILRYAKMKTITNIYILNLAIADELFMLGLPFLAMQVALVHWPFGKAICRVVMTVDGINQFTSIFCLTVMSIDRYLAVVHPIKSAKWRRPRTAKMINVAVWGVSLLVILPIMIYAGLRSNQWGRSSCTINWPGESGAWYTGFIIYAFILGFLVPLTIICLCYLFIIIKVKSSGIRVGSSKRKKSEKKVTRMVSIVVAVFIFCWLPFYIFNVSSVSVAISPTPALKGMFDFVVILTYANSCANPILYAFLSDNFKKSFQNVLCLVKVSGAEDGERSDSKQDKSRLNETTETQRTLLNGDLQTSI
Where a SMILES comes first, the peptide text is derived from it. Bridges are numbered along the chain shown (N, C = ends). [ ]: non-standard residue; d: D form. d1Nal = N[C@H](Cc1cccc2ccccc12)C(=O)O; Ahp = NCCCCCCC(=O)O

{"columns": ["compound", "Ki"],
 "data": [
  ["C[C@@H](O)[C@@H]1NC(=O)[C@H](CCCCN)NC(=O)[C@@H](Cc2c[nH]c3ccccc23)NC(=O)[C@H](Cc2c[nH]c3ccccc23)NC(=O)[C@H](Cc2ccccc2)NC(=O)CCCCCCNC(=O)[C@H](Cc2ccccc2)NC1=O [L-362855] (cyclo([Ahp]FW[dW]KTF))", "12 nM"],
  ["CC(C)[C@H](NC(=O)[C@H](CCCCN)NC(=O)[C@@H](Cc1c[nH]c2ccccc12)NC(=O)[C@H](Cc1ccc(O)cc1)NC(=O)[C@H](Cc1ccccc1)NC(=O)[C@H](N)Cc1ccccc1)C(=O)N[C@@H](Cc1ccccc1)C(=O)N[C@H](Cc1cccc2ccccc12)C(N)=O [BIM 23056] (H-[dF]FY[dW]KVF[d1Nal]-NH2)", "3400 nM"],
  ["C[C@@H](O)[C@@H]1NC(=O)[C@H](CCCCN)NC(=O)[C@@H](Cc2c[nH]c3ccccc23)NC(=O)[C@H](Cc2ccccc2)NC(=O)[C@H](Cc2ccccc2)NC(=O)[C@H](N)CSSC[C@H](C(N)=O)NC(=O)[C@H](Cc2ccccc2)NC1=O", "101 nM"],
  ["CC(C)[C@@H]1NC(=O)[C@H](CCCCN)NC(=O)[C@@H](Cc2c[nH]c3ccccc23)NC(=O)[C@H](Cc2ccc(O)cc2)NC(=O)[C@@H](NC(=O)[C@H](N)Cc2ccc3ccccc3c2)CSSC[C@@H](C(=O)N[C@H](C(N)=O)[C@@H](C)O)NC1=O", "1.47 nM"],
  ["CC(O)[C@@H](NC(=O)[C@H](CCCCN)NC(=O)[C@@H](Cc1c[nH]c2ccccc12)NC(=O)[C@H](Cc1ccc(O)cc1)NC(=O)C(Cc1ccccc1)NC(=O)C(N)CS)C(=O)NC(Cc1ccccc1)C(=O)NC(CS)C(N)=O (stereo partly drawn)", "57 nM"],
  ["CC[C@@H]1NC(=O)[C@H](CCCCN)NC(=O)[C@@H](Cc2c[nH]c3ccccc23)NC(=O)[C@H](Cc2ccc(O)cc2)NC(=O)[C@@H](NC(=O)[C@H](N)Cc2ccccc2)CSSC[C@@H](C(=O)N[C@H](C(N)=O)[C@@H](C)O)NC1=O", "0.57 nM"],
  ["C[C@@H](O)[C@H](NC(=O)[C@H](Cc1ccccc1)NC(=O)[C@@H](NC(=O)[C@H](CCCCN)NC(=O)[C@@H](Cc1c[nH]c2ccccc12)NC(=O)[C@H](Cc1ccccc1)NC(=O)[C@H](Cc1ccccc1)NC(=O)[C@H](N)Cc1ccccc1)[C@@H](C)O)C(N)=O [CAS_133073-82-2] (H-[dF]FF[dW]KTFT-NH2)", "69 nM"],
  ["CC(C)[C@@H]1NC(=O)[C@H](CCCCN)NC(=O)[C@@H](Cc2c[nH]c3ccccc23)NC(=O)[C@H](Cc2ccc(O)cc2)NC(=O)[C@@H](NC(=O)[C@H](N)Cc2ccccc2)CSSC[C@@H](C(=O)N[C@@H](Cc2c[nH]c3ccccc23)C(N)=O)NC1=O [CAS_71306] (H-[dF]CY[dW]KVCW-NH2; disulfide 2-7)", "0.85 nM"]
]}

# credit: BindingDB's records for doi:10.1007/bfb0000613
